Quick note: these are Binding affinity numbers for system: Estrogen receptor (Rattus norvegicus) (UniProt P06211+Q62986)
readoutName: Binding affinity

Worked set:
CC/C(=C(\c1ccc(I)cc1)c1ccc(OCCCCCCCN2CCCC2)cc1)c1ccccc1 3
CC/C(=C(\c1ccc(I)cc1)c1ccc(OCCCCCCN(C)C)cc1)c1ccccc1 8
CC/C(=C(\c1ccc(I)cc1)c1ccc(OCCCN2CCCC2)cc1)c1ccccc1 23

[I] CC/C(=C(\c1ccc(I)cc1)c1ccc(OCCCCCCCCCCN2CCCC2)cc1)c1ccccc1
[II] CC/C(=C(\c1ccc(I)cc1)c1ccc(OCCN(C)C)cc1)c1ccccc1
Q. Lab note: check whether I or II shows the higher recorded Binding affinity. Answer = label.
A. II
(II: 8, I: 0.4)
